These entries and their values trace back to PubChem BioAssay (NCI).

- System: SK-MEL-28 melanoma
- Assay method text: NCI-60 one-dose screen, 48 h (100 = growth as untreated, 0 = no growth, -100 = all killed)
- Condition: 10 µM unless noted
Compounds without any hit were thinned out: in the full panel of roughly 83,000, 20% have a hit.
The label depends only on growth: true (1) if it is at least 90%, false (0) if it is smaller.

Here are 3 compounds together with their reported answers.
- Given smiles: "Nc1ccccc1NC(=O)c1ccc(CN2CCC/C(=C\\c3ccccn3)C2=O)cc1"
  Class assignment: "false (0)"
- Given smiles: "Brc1ccc2[nH]cc(-c3nc(-c4c[nH]c5ncccc45)cs3)c2c1"
  Class assignment: "false (0)"
- Given smiles: "OCCNc1nc(Nc2ccc(Cl)c(Cl)c2)nc2ccccc12"
  Class assignment: "false (0)"

Does `O=C1c2cc3c(cc2-c2c1c1ccc(F)cc1c(=O)n2CCCN1CCOCC1)OCO3` have a reported growth of at least 90%?
false (0)

Does `CN(C)c1ccc(C(=O)c2ccc(N(C)C)c(N)c2)cc1N` have a reported growth of at least 90%?
false (0)

Does `N=C(N)c1ccc(-c2ccc(-c3cc(F)cc(F)c3)o2)nc1` have a reported growth of at least 90%?
true (1)

Does `CC(C)=CCC[C@](C)(O)[C@H]1CC[C@]2(C)[C@@H]1CC[C@@H]1[C@@]3(C)C/C(=C/c4ccc(Br)cc4)C(=O)C(C)(C)[C@@H]3CC[C@]12C` have a reported growth of at least 90%?
true (1)

Does `C[C@@H]1CCCCCCCCC[C@H](O)C(=O)C[C@@H](SC[C@@H](O)C(=O)O)C(=O)O1` have a reported growth of at least 90%?
true (1)

* * *

- Tested on: UACC-62 melanoma
- Assay method text: NCI-60 one-dose screen, 48 h (100 = growth as untreated, 0 = no growth, -100 = all killed)
- Condition: 10 µM unless noted
The panel holds about 83,000 compounds, 20% with a hit somewhere; the sample as a whole holds those more often.
Value type: growth (%)
Supply the numeric figure in %, leaving out any unit text.

Solved cases below.
- Given smiles: "Nc1ccccc1NC(=O)c1ccc(CN2CCC/C(=C\\c3ccccn3)C2=O)cc1"
  growth, %: -23.6
- Given smiles: "O=C1c2cccc3cccc(c23)C(=O)N1CC#Cc1ccc2c3c(cccc13)C(=O)N(CCO)C2=O"
  growth, %: 93.1
- Given smiles: "CC(C)=CCC[C@](C)(O)[C@H]1CC[C@]2(C)[C@@H]1CC[C@@H]1[C@@]3(C)C/C(=C/c4ccc(Br)cc4)C(=O)C(C)(C)[C@@H]3CC[C@]12C"
  growth, %: 78.6
- Given smiles: "CC(C)(C)c1cc(-n2c(-c3ccc(Cl)cc3)nc3cc(C(=O)Nc4ccc(Cl)cc4)ccc32)n[nH]1"
  growth, %: 39
- Given smiles: "Fc1ccc(Nc2ccc3c(OCCCN4CCOCC4)cccc3n2)cc1F"
  growth, %: 62.4
- Given smiles: "CC(C)C[C@@H](NC(=O)[C@@H](Cc1ccccc1)NC(=O)c1cnccn1)B1O[C@H]2[C@H](O)[C@@H](C(=O)NCCCC[C@@H]3NC(=O)[C@@H](Cc4ccccc4)NC(=O)[C@H](CC(=O)O)NC(=O)CNC(=O)[C@H](CCCN=C(N)N)NC3=O)O[C@@H](CN)[C@H]2O1"
  growth, %: -36.7

Kindly review the next compound as well.
Name the recorded growth for `COc1ccc(/C=C/C(=O)c2ccc([N+](=O)[O-])cc2)cc1` .
88
